biological target: glycine transporter-1 (GlyT-1) (Homo sapiens, UniProt P48067); construct: JAR cells (ATCC#HTB-144), which endogenously express GlyT-1; host or cells: JAR human choriocarcinoma cells; test: [14C]glycine uptake assay in JAR cells endogenously expressing GlyT-1 (scintillation proximity); type: cell-based; conditions: JAR cells, [14C]glycine 5 μM, 3 hour incubation; read-out: GlyT-1 IC50
Sequence (P48067 whole entry): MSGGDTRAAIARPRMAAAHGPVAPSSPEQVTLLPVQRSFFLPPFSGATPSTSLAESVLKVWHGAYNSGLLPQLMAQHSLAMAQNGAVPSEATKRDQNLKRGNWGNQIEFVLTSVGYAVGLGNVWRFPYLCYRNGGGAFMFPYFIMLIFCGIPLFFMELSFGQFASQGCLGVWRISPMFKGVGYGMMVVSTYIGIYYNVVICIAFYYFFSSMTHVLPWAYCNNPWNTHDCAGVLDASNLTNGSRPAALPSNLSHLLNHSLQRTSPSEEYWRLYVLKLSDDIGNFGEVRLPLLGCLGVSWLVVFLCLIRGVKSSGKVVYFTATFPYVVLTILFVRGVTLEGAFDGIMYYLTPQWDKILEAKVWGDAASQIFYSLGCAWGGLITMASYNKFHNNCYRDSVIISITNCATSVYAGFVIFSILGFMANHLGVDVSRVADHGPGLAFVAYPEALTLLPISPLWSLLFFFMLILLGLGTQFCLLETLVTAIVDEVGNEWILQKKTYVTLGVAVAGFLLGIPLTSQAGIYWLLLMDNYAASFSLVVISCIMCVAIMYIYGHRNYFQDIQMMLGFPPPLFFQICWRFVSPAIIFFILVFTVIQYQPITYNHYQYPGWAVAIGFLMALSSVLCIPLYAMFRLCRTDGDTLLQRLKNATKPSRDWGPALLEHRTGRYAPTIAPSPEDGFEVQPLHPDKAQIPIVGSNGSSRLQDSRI
pIC50: −log10 of the molar value. Structures can show the parent of a compound that is named as a salt.
measurement label: pIC50

Example entries and their recorded answers appear below.
| compound | measurement label | recorded result |
| --- | --- | --- |
| Cc1cccc(C)c1C(=O)NCC1(N2CCN(S(=O)(=O)c3cn(C)cn3)CC2)CCC(F)(F)CC1 [compound 164, Hydrochloride] | pIC50 | 8.40 |
| CCCS(=O)(=O)N1CCN(C2(CNC(=O)c3ccccc3OC(F)(F)F)CCCCC2)CC1 [compound 4, Hydrochloride] | pIC50 | 7.66 |
| Cn1cc(S(=O)(=O)N2CCN(C3(CNC(=O)c4ccc(C(F)(F)F)cc4Cl)CCC(F)(F)CC3)CC2)nn1 [compound 193, Hydrochloride] | pIC50 | 9.00 |
| Cn1cc(S(=O)(=O)N2CCN(C3(CNC(=O)c4c(F)cccc4F)CCCC3)CC2)nn1 [compound 108, Hydrochloride] | pIC50 | 7.26 |
| CCCS(=O)(=O)N1CCN(C2(CNC(=O)c3ccc(Br)cc3C)CCCCC2)CC1 [compound 18, Hydrochloride] | pIC50 | 7.55 |
| CCCS(=O)(=O)N1CCN(C2(CNC(=O)c3c(F)cccc3OC)CCOCC2)CC1 [compound 123, Hydrochloride] | pIC50 | 6.38 |
| Cl.[2H]C([2H])([2H])n1cc(S(=O)(=O)N2CCN(C3(CNC(=O)c4ccc(C(F)(F)F)cc4Cl)CCC(F)(F)CC3)CC2)nn1 [compound 240] | pIC50 | 7.31 |
| Cn1cnc(S(=O)(=O)N2CCN(C3(CNC(=O)c4c(F)cccc4F)CCC(F)(F)CC3)CC2)c1 [compound 163, Hydrochloride] | pIC50 | 7.74 |
| CCCS(=O)(=O)N1CCN(C2(CNC(=O)c3c(Cl)ccc(C(F)(F)F)c3Cl)CCC(F)(F)CC2)CC1 [compound 265, Hydrochloride] | pIC50 | 6.64 |
| CCCS(=O)(=O)N1CCN(C2(CNC(=O)c3ccc(F)cc3C)CCC(F)(F)CC2)CC1 [compound 145, Hydrochloride] | pIC50 | 7.28 |

[I] CCCS(=O)(=O)N1CCN(C2(CNC(=O)c3c(F)cccc3OC(F)(F)F)CCC(F)(F)CC2)CC1 [compound 158, Hydrochloride]
[II] Cc1cccc(F)c1C(=O)NCC1(N2CCN(S(=O)(=O)c3cn(C)cn3)CC2)CCC(F)(F)CC1 [compound 182, Hydrochloride]
Would you kindly point out which of I and II has the smaller pIC50 figure? Lab note: record the label of whichever item you select.
I
(I: 7.46, II: 8.22)

---

Biological target: glycine transporter-1 (GlyT-1) (Homo sapiens, UniProt P48067)
Construct: JAR cells (ATCC#HTB-144), which endogenously express GlyT-1; host or cells: JAR human choriocarcinoma cells
Assay: [14C]glycine uptake assay in JAR cells endogenously expressing GlyT-1 (scintillation proximity)
Type: cell-based
Conditions: JAR cells, [14C]glycine 5 μM, 3 hour incubation; read-out: GlyT-1 IC50
Description: The inhibitory activity of compounds of the invention against the glycine transporter-1 (GlyT-1) can be determined by the following scintillation proximity assay. The potency of each compound was assessed in inhibiting the uptake of radiolabeled glycine ([^14C]glycine) using the human choriocarcinoma cell line, JAR cells (ATCC#HTB-144), which endogenously express GlyT-1. […]
Structures can show the parent of a compound that is named as a salt.
measurement label: IC50 (µM)

Example entries and their recorded answers appear below.
| compound | measurement label | recorded result |
| --- | --- | --- |
| COc1cc(F)cc(C)c1C(=O)NCC1(N2CCN(S(=O)(=O)CC3CC3)CC2)CCCCC1 [compound 79, Hydrochloride] | IC50 | 0.029 |
| Cn1cc(S(=O)(=O)N2CCN(C3(CNC(=O)c4c(Cl)cccc4Cl)CCCC3)CC2)nn1 [compound 109, Hydrochloride] | IC50 | 0.031 |
| CCCS(=O)(=O)N1CCN(C2(CNC(=O)c3c(C)cccc3Cl)CCC(F)(F)CC2)CC1 [compound 155, Hydrochloride] | IC50 | 0.026 |

[I] CCCS(=O)(=O)N1CCN(C2(CNC(=O)c3ccc(Cl)cc3C(F)(F)F)CCC(F)(F)CC2)CC1 [compound 245, Hydrochloride]
[II] CCCS(=O)(=O)N1CCN(C2(CNC(=O)c3ccc(F)cc3C(F)(F)F)CCC(F)(F)CC2)CC1 [compound 148, Hydrochloride]
For the two items I and II , which reports the higher IC50 value? Lab note: record the label of whichever item you select.
II

---

biological target: glycine transporter-1 (GlyT-1) (Homo sapiens, UniProt P48067); construct: JAR cells (ATCC#HTB-144), which endogenously express GlyT-1; host or cells: JAR human choriocarcinoma cells; assay: [14C]glycine uptake assay in JAR cells endogenously expressing GlyT-1 (scintillation proximity); assay type: cell-based; conditions: JAR cells, [14C]glycine 5 μM, 3 hour incubation; read-out: GlyT-1 IC50
Structures can show the parent of a compound that is named as a salt.
measurement label: IC50 (nM)

[I] COc1cc(F)cc(SC)c1C(=O)NCC1(N2CCN(S(=O)(=O)CC3CC3)CC2)CCCCC1 [compound 82, Hydrochloride]
[II] CCCS(=O)(=O)N1CCN(C2(CNC(=O)c3c(F)cccc3F)CCC3(CC3)CC2)CC1 [compound 198, Hydrochloride]
[III] Cn1cnc(S(=O)(=O)N2CCN(C3(CNC(=O)c4ccc(F)cc4F)CCCCC3)CC2)c1 [compound 100, Hydrochloride]
In ascending order of recorded IC50, list the compounds from the set above. In plain terms: list the labels in the order you were asked to.
III, I, II
(III: 30 nM, I: 50 nM, II: 162 nM)

---

target: glycine transporter-1 (GlyT-1) (Homo sapiens, UniProt P48067); construct: JAR cells (ATCC#HTB-144), which endogenously express GlyT-1; host or cells: JAR human choriocarcinoma cells; test: [14C]glycine uptake assay in JAR cells endogenously expressing GlyT-1 (scintillation proximity); assay type: cell-based; conditions: JAR cells, [14C]glycine 5 μM, 3 hour incubation; read-out: GlyT-1 IC50
Counter-ions that a name gives are not always drawn.
measurement label: IC50 (nM)

Example entries and their recorded answers appear below.
| compound | value units | IC50 |
| --- | --- | --- |
| COc1cccc(F)c1C(=O)NCC1(N2CCN(S(=O)(=O)c3cn(C)cn3)CC2)CCCCC1 [compound 96, Hydrochloride] | nM | 2 |
| CCCS(=O)(=O)N1CCN(C2(CNC(=O)c3c(Cl)cccc3Cl)CCC(F)(F)CC2)CC1 [compound 135, Hydrochloride] | nM | 42 |

[1] CCCS(=O)(=O)N1CCN(C2(CNC(=O)c3ccc(C(F)(F)F)cc3Cl)CCC(F)(F)CC2)CC1 [compound 151, Hydrochloride]
[2] COc1cccc(Cl)c1C(=O)NCC1(N2CCN(S(=O)(=O)c3cn(C)cn3)CC2)CCC(F)(F)CC1 [compound 173, Hydrochloride]
For the two items 1 and 2 , which reports the higher IC50 value? Lab note: record the label of whichever item you select.
1
(1: 17 nM, 2: 2 nM)

---

Biological target: glycine transporter-1 (GlyT-1) (Homo sapiens, UniProt P48067)
Construct: JAR cells (ATCC#HTB-144), which endogenously express GlyT-1; host or cells: JAR human choriocarcinoma cells
Test: [14C]glycine uptake assay in JAR cells endogenously expressing GlyT-1 (scintillation proximity)
Format: cell-based
Details: JAR cells, [14C]glycine 5 μM, 3 hour incubation; read-out: GlyT-1 IC50
Description: The inhibitory activity of compounds of the invention against the glycine transporter-1 (GlyT-1) can be determined by the following scintillation proximity assay. The potency of each compound was assessed in inhibiting the uptake of radiolabeled glycine ([^14C]glycine) using the human choriocarcinoma cell line, JAR cells (ATCC#HTB-144), which endogenously express GlyT-1. […]
Structures can show the parent of a compound that is named as a salt.
measurement label: IC50 (nM)

Example entries and their recorded answers appear below.
| compound | IC50 / nM |
| --- | --- |
| CCCS(=O)(=O)N1CCN(C2(CNC(=O)c3c(N)cccc3Cl)Cc3ccccc3C2)CC1 [compound 115, Hydrochloride] | 661 |
| Cn1cc(S(=O)(=O)N2CCN(C3(CNC(=O)c4cc(F)c(Cl)cc4F)CCC(F)(F)CC3)CC2)nn1 [compound 238, Hydrochloride] | 12 |
| O=C(NCC1(N2CCC(S(=O)(=O)CC3CC3)CC2)CCCCC1)c1ccc(Cl)cc1Cl [compound 200, Hydrochloride] | 1080 |
| CC1CN(S(=O)(=O)c2cn(C)nn2)C(C)CN1C1(CNC(=O)c2ccc(C(F)(F)F)cc2C(F)(F)F)CCC(F)(F)CC1 (stereo not drawn) [compound 237, Hydrochloride] | 2 |

[A] Cn1cnc(S(=O)(=O)N2CCN(C3(CNC(=O)c4ccc(Cl)cc4Cl)CCCCC3)CC2)c1 [compound 97, Hydrochloride]
[B] CCCS(=O)(=O)N1CCN(C2(CNC(=O)c3ccc(Cl)cc3Cl)CCCCC2)CC1 [compound 2, Hydrochloride]
Would you kindly point out which of A and B has the smaller IC50 figure? Lab note: record the label of whichever item you select.
A
